viability, T/C values, listed per item
- System: 454973-116-R2-J3-PDC complex spheroid viability;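 also: spheroids exposed to drugs for seven days before measurement; percent viability relative to DMSO vehicle control wells taken as 100%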
- assay summary: Anticancer human tumor 454973-116-R2-J3-PDC patient-derived pancreatic carcinoma cell line growth inhibition [POLQ]
- condition set: second compound 3.16 µM; first compound 0.316 µM; active compounds read low

{"columns": ["molecule", "viability, T/C / %"],
 "data": [
  ["CNCc1ccc(-c2[nH]c3cc(F)cc4c3c2CCNC4=O)cc1 + Nc1ccc(C#CCN(C(=O)Cc2ncc(C(F)(F)F)cc2C(F)(F)F)c2ccc(F)cc2)nn1", 108],
  ["COc1cc(C2c3cc4c(cc3C(OC3OC5COC(C)OC5C(O)C3O)C3COC(=O)C23)OCO4)cc(OC)c1O (stereo not drawn) + Cc1cccc(N(C)C(=O)C2C(O)CCN2c2nc(C)cc(C(F)(F)F)c2C#N)c1", 82.1],
  ["CCCS(=O)(=O)Nc1ccc(F)c(C(=O)c2c[nH]c3ncc(-c4ccc(Cl)cc4)cc23)c1F + Nc1ccc(C#CCN(C(=O)Cc2ncc(C(F)(F)F)cc2C(F)(F)F)c2ccc(F)cc2)nn1", 112]
]}
